Origin of measurements: paper PMC9421654

# test details: in vivo
# condition: dog, iv, 2 mg/kg
# Source text: IV formulation vehicle for rat: 15% DMA / 50%PEG / 35% D5W; for dog: 5% DMA / PO formulation vehicle for mouse and rat: a suspension in 0.5% CMC / 0.25% Tween80, as a suspension; for dog: a suspension in 0.5% methyl cellulose / 0.25% Tween80
metric name: clearance (mL/min/kg)

1) CC(C)Oc1ccc(-c2nsc(Nc3ncccc3N(C)C)n2)nc1 [Compound 31]; 18.8

====

# test details: Kinetic solubility measurement
# Format: physicochemical
# condition: 10 mM DMSO stock solutions
# solubility kinetic at 24 h values compiled below
metric name: solubility kinetic at 24 h (µM)

1. CC(=O)Nc1cccnc1Nc1nc(-c2ccc(OC(C)C)cn2)ns1; 29.4
2. CC(C)Oc1ccc(-c2nsc(Nc3ncccc3C(C)C)n2)nc1; 2.58
3. Cc1cccnc1Nc1nc(-c2cnc(OC(C)C)cn2)ns1; 2.1
4. CC(C)Oc1cnc(-c2nsc(Nc3ncccc3C(C)C)n2)cc1C(F)(F)F; 1.05
5. Cc1cccnc1Nc1nc(-c2cc(C3CCN(C)CC3)ccn2)ns1; 184
6. Cc1cccnc1Nc1nc(-c2cc(C#N)c(OC(C)C)cn2)ns1; 0.3
7. CN1CCC(Oc2ccc(Nc3nc(-c4ccccn4)ns3)nc2)CC1; 193

====

# test details: LogD measurement (octanol-water)
# Assay type: physicochemical
# condition: supplement; read-out: measured logD
metric name: logD at 24 h

1) CNc1cccnc1Nc1nc(-c2ccc(OC(C)C)cn2)ns1 [Compound 30]; 2.9
2) CC(C)Oc1ccc(-c2nsc(Nc3ncccc3C(=O)N(C)C)n2)nc1 [Compound 61]; 2.1
3) CC(C)c1cccnc1Nc1nc(-c2ccc(OC3CC3)cn2)ns1 [Compound 23]; 2.5
4) Cc1cccnc1Nc1nc(-c2ccc(OC3CC4(C3)CN(C3CC3)C4)cn2)ns1 [Compound 12]; 2.1
5) Cc1cccnc1Nc1nsc(-c2ccc(OC3CCOCC3)cn2)n1 [Compound 5]; 2.15
6) Cc1cccnc1Nc1nc(-c2ccc(OC3CC3)cn2)ns1 [Compound 11]; 3.4
7) CC(C)Oc1cc(-c2nsc(Nc3ncccc3N(C)C)n2)ncc1C(F)(F)F [Compound 33]; 3
8) CC(=O)N(C)c1cc(C(F)(F)F)cnc1Nc1nc(-c2ccccn2)ns1 [Compound 53]; 2.2
9) Cc1cccnc1Nc1nc(-c2cc(C#N)c(OC(C)C)cn2)ns1 [Compound 15]; 2.3
10) Cc1cccnc1Nc1nc(-c2ncc(OC(C)C)cn2)ns1 [Compound 40]; 2.9
11) CC(C)Oc1cnc(-c2nsc(Nc3ncccc3C(C)C)n2)cc1C(F)(F)F [Compound 24]; 2.9
12) CN(C)c1cccnc1Nc1nc(-c2ccc(OC3CC3)cn2)ns1 [Compound 32]; 2.5
13) CC(=O)Nc1cccnc1Nc1nc(-c2ccc(OC(C)C)cn2)ns1 [Compound 46]; 2.4
14) CC(C)c1ccnc(-c2nsc(Nc3cc(C(F)(F)F)ccn3)n2)c1 [Compound 35]; 3
15) CC(C)Oc1cccnc1-c1nsc(Nc2ncc(C(F)(F)F)cc2C(=O)N(C)C)n1 [Compound 58]; 2.15
16) Cc1nccnc1Nc1nc(-c2ccc(OC(C)C)cn2)ns1 [Compound 41]; 2.7
17) CNC(=O)c1cccnc1Nc1nc(-c2ccc(OC(C)C)cn2)ns1 [Compound 60]; 1.8
18) CC(C)Oc1cnc(-c2nsc(Nc3ncccc3N(C)C(=O)C3CC3)n2)cc1C(F)(F)F [Compound 49]; 3.63
19) CC(C)Oc1ccc(-c2nsc(Nc3ncccc3C(N)=O)n2)nc1 [Compound 59]; 1.6
20) CC(=O)N(C)c1cccnc1Nc1nc(-c2ccc(OC(C)C)cn2)ns1 [Compound 47]; 1.62
21) CC(C)Oc1ccc(-c2nsc(Nc3ncccc3C(C)C)n2)nc1 [Compound 25]; 2.85
22) Cc1cccnc1Nc1nc(-c2ccc(OC3CCN(C4CC4)CC3)cn2)ns1 [Compound 19]; 3.3
23) CC(C)c1cnc(Nc2nc(-c3ncccc3OC3CC3)ns2)cc1C(F)(F)F [Compound 38]; 2.95
24) Cc1cccnc1Nc1nnc(-c2ccc(OC3CCOCC3)cn2)o1 [Compound 7]; 1.55
25) Cc1cccnc1Nc1nc(-c2ccc(OC(C)C)cn2)ns1 [Compound 10]; 2.88
26) Cc1cccnc1Nc1nnc(-c2ccc(OC3CCOCC3)cn2)s1 [Compound 4]; 2.7
27) Cc1cccnc1N(c1nc(-c2ccc(OC(C)C)cn2)ns1)C(C)C [Compound 43]; 3.1
28) COc1cccnc1Nc1nc(-c2cc(C)ccn2)ns1 [Compound 29]; 2.1
29) CC(C)c1ccnc(-c2nsc(Nc3ncccc3C(F)(F)F)n2)c1 [Compound 27]; 2.5
30) Cc1cccnc1Nc1nc(-c2ccc(OC3CCOCC3)cn2)ns1 [Compound 3]; 2.2
